Tested on: CAKI-1 renal
ASSAY_PROCEDURE: NCI-60 one-dose screen, 48 h (100 = growth as untreated, 0 = no growth, -100 = all killed)
CONDITIONS: 10 µM
About 83,000 compounds went through this panel and 20% of them were active in at least one assay; those are over-represented in the sample as a whole.
Lab note: compare growth with 60%, writing true if less and false if equal or more.

Use the examples below as a reference point.
[in] Strictly below 60% in growth? COc1cccc(/C=C2\N=C(C)N(CCc3ccc(S(N)(=O)=O)cc3)C2=O)c1
[out] false

[in] Strictly below 60% in growth? CN1CCN(c2ccc(C(=O)/C=C/c3cc(Br)ccc3F)cc2)CC1
[out] true

[in] Strictly below 60% in growth? COc1ccc2cc([C@H](C)C(=O)NCc3ccccc3)ccc2c1
[out] true

[in] Strictly below 60% in growth? O=C(Nc1ccc(F)c(Cl)c1)c1cc(-c2ccc(F)cc2F)ccc1O
[out] true

[in] Strictly below 60% in growth? CN1CCN(Cc2ccc(C(=O)Nc3cccc(Nc4ccc5c(O)cccc5n4)c3)cc2C(F)(F)F)CC1
[out] true

Next:
[in] Strictly below 60% in growth? CC(=O)Nc1ccc(-c2cn(-c3cccc(C(=O)Nc4cc(CN5CCOCC5)cc(C(F)(F)F)c4)c3)nn2)cn1
[out] true

[in] Strictly below 60% in growth? O=S(=O)(Nc1ncccn1)c1ccc(-n2c(-c3ccccc3)nc(-c3ccccc3)c2-c2ccccc2)cc1
[out] false

[in] Strictly below 60% in growth? COc1ccc(/C=C/C(=O)c2ccc(NC(=O)CN3C(=O)NC(C)(c4ccccc4)C3=O)cc2)cc1 (configuration not stated)
[out] false

[in] Strictly below 60% in growth? COc1ccc(-c2nc(-c3ccccc3)c(-c3ccccc3)n2-c2ccc(S(=O)(=O)Nc3ncccn3)cc2)cc1OC
[out] false

###

Test system: HCT-116 colon
ASSAY_PROCEDURE: NCI-60 one-dose screen, 48 h (100 = growth as untreated, 0 = no growth, -100 = all killed)
CONDITIONS: 10 µM
The panel holds about 83,000 compounds, 20% with a hit somewhere; the sample as a whole holds those more often.
Given measured growth, output T if it is greater than or equal to 30% and F if not.

Use the examples below as a reference point.
[in] Could you verify whether the entry CC1(c2ccccc2)NC(=O)N(CC(=O)Nc2ccc(C(=O)/C=C/c3ccccc3)cc2)C1=O (stereo not drawn) shows growth of no less than 30%?
[out] F

[in] Could you verify whether the entry CC(=O)OC[C@@]1(C)C2CC[C@]3(C)C(CC=C4C5CC(C)(C)CC[C@]5(C(=O)Nc5ccccc5)CC[C@]43C)[C@@]2(C)C[C@@H](OC(C)=O)[C@@H]1OC(C)=O (stereo partly drawn) shows growth of no less than 30%?
[out] F

[in] Could you verify whether the entry COc1ccc(-c2nc(S(=O)(=O)c3ccc(C)cc3)c(S(C)(=O)=O)o2)cc1 shows growth of no less than 30%?
[out] F

[in] Could you verify whether the entry CCCCSc1nc(Nc2ccc(/C(C)=N/NC(N)=S)cc2)c(C#N)c(-c2ccc(F)cc2)n1 shows growth of no less than 30%?
[out] T

[in] Could you verify whether the entry CCOC(=O)C1=C(N)N(c2ccccc2)C2=C(C(=O)CC(C)(C)C2)C1c1ccc(Cl)cc1 (stereo not drawn) shows growth of no less than 30%?
[out] F

Next:
[in] Could you verify whether the entry Nc1nnc(-c2c[nH]c3ncccc23)c(-c2c[nH]c3ccc(Br)cc23)n1 shows growth of no less than 30%?
[out] F

[in] Could you verify whether the entry CN1C(=O)N(C)C2SC(N/N=C/c3ccc(F)cc3)=NC21 (stereo not drawn) shows growth of no less than 30%?
[out] F

[in] Could you verify whether the entry COc1cccc(/C=N/NC(=O)c2ccc3nc(-c4ccc(Cl)cc4)[nH]c3c2)c1O shows growth of no less than 30%?
[out] F

[in] Could you verify whether the entry Cc1cc(C)cc(Oc2cccc(-c3c(C)nnn3C3CCN(CCN(C)C)CC3)n2)c1 shows growth of no less than 30%?
[out] F

[in] Could you verify whether the entry COc1cc2oc(-c3cccc(C(=O)Nc4ccc(Cl)cc4)c3)cc(=O)c2c(OCCNC(=O)CNC(=O)OC(C)(C)C)c1OC shows growth of no less than 30%?
[out] T

###

Tested on: NCI-H23 lung
ASSAY_PROCEDURE: NCI-60 one-dose screen, 48 h (100 = growth as untreated, 0 = no growth, -100 = all killed)
CONDITIONS: 10 µM
Protocol: Growth inhibition of the NCI-H23 human Non-Small Cell Lung tumor cell line is measured as a screen for anti-cancer activity. Cells are grown in 96 well plates and exposed to the test compound for 48 hours. Compounds are tested at a single concentration, which is 10^-5 M for most compounds. The reported endpoint is percent growth (GI% or GIPRCNT), where numbers from 0 - 100% represent growth inhibition, and numbers from -100% - 0 represent cell death. […]
This is part of a sample that, as a whole, favours compounds with a hit. Of some 83,000 tested, about 20% had one in any assay.
Given measured growth, output T if it is greater than or equal to 10% and F if not.

Use the examples below as a reference point.
[in] Could you verify whether the entry C/C(=N\N=C\c1ccc(N(C)C)cc1)c1ccc2c(c1)Nc1ccccc1S2 shows growth of no less than 10%?
[out] T

[in] Could you verify whether the entry Cc1nc(Nc2nc(C)c3ccc(OCCN4CCOCC4)cc3n2)[nH]c(=O)c1C shows growth of no less than 10%?
[out] F

[in] Could you verify whether the entry O=C(CNc1nc(-c2ccccc2)cs1)Nc1ccc(Br)cc1 shows growth of no less than 10%?
[out] F

Next:
[in] Could you verify whether the entry CC[C@@]1(O)C(=O)OCc2c1cc1n(c2=O)Cc2c-1nc1cc(F)c(C)c3c1c2[C@@H](N)CC3 shows growth of no less than 10%?
[out] F

[in] Could you verify whether the entry CCCn1c(=O)c2[nH]c(-c3ccc(OCc4nc5ccccc5[nH]4)cc3)nc2n(CCC)c1=O shows growth of no less than 10%?
[out] T

###

Tested on: RPMI-8226 leukemia
ASSAY_PROCEDURE: NCI-60 one-dose screen, 48 h (100 = growth as untreated, 0 = no growth, -100 = all killed)
CONDITIONS: 10 µM
The panel holds about 83,000 compounds, 20% with a hit somewhere; the sample as a whole holds those more often. Activity calls are given as the source filed them. How the source made its calls: active means growth percent below 10; inactive means the rest.
READOUT_NAME: growth

Below: 7 compounds and their reported growth.
Reported growth for Cc1cc(C)nc(/N=C(\N)Nc2ccc(S(=O)(=O)Nc3nc(C)cc(C)n3)cc2)n1 was 98.9% (inactive)

Reported growth for Cc1ccn2c(C(=O)c3ccccc3)cc(-c3cc(-c4ccc(N(C)C)cc4)c(C#N)c(N)n3)c2c1 was 82.5% (inactive)

Reported growth for CC(=O)Nc1ccc(-n2cnc3cc(-c4ccc(NS(C)(=O)=O)cc4)ccc32)cc1 was 55.8% (inactive)

Reported growth for CC[C@]12C=CCN3CC[C@@]4(c5cc(C#CCNc6ccc(C)c(Nc7nccc(-c8cccnc8)n7)c6)c(OC)cc5N(C)[C@H]4[C@@](O)(C(=O)OC)[C@@H]1OC(C)=O)C32 (stereo partly drawn) was 38.5% (inactive)

Reported growth for CN1C(=O)N(C)C2SC(N/N=C/c3ccc(F)cc3)=NC21 (stereo not drawn) was 77% (inactive)

Reported growth for N#Cc1c(Cl)nc(SCc2ccc(F)cc2)nc1-c1ccc(F)cc1 was 91.4% (inactive)

Reported growth for CN1CCN(Cc2ccc(C(=O)Nc3cccc(Nc4ccc5cc(O)ccc5n4)c3)cc2C(F)(F)F)CC1 was -51.3% (active)

As a next step, examine the compound that follows.
Reported growth for CN(CCO)c1oc(-c2ccccc2)nc1[P+](c1ccccc1)(c1ccccc1)c1ccccc1 was 7.8% (active)

###

Test system: RPMI-8226 leukemia
ASSAY_PROCEDURE: NCI-60 one-dose screen, 48 h (100 = growth as untreated, 0 = no growth, -100 = all killed)
CONDITIONS: 10 µM
About 83,000 compounds went through this panel and 20% of them were active in at least one assay; those are over-represented in the sample as a whole.
Given measured growth, output yes if it is greater than or equal to 60% and no if not.

Use the examples below as a reference point.
[in] Could you verify whether the entry CCN1CCN(c2ccc(NC(=O)Nc3ccc(-c4cc(C(=O)NC(C)C)c5ncccc5n4)cc3)cc2C(F)(F)F)CC1 shows growth of no less than 60%?
[out] no

[in] Could you verify whether the entry Cc1ccc(F)cc1N/C=c1\s/c(=C(\C#N)C(=O)Nc2ccccc2)n(-c2ccccc2)c1=O shows growth of no less than 60%?
[out] yes

[in] Could you verify whether the entry COc1ccccc1NCc1ccc(CO)n1-c1ccc(C)cc1 shows growth of no less than 60%?
[out] yes

[in] Could you verify whether the entry c1ccc(C(=C(c2ccc(OCCN3CCCCC3)cc2)c2ccc(OCCN3CCCCC3)cc2)C2CCCC2)cc1 shows growth of no less than 60%?
[out] no

[in] Could you verify whether the entry COc1cc2c(c(OC)c1OC)C(=O)CC(c1cccc(NC(=O)c3cccc(N)c3)c1)O2 (stereo not drawn) shows growth of no less than 60%?
[out] no

[in] Could you verify whether the entry O=c1c2ccccc2nc(COc2ccccc2)n1/N=C/c1ccc(F)cc1 shows growth of no less than 60%?
[out] yes

[in] Could you verify whether the entry CONC[C@]1(C)C=C2C(=O)[C@](C)(O)C3(CC3)C(C)=C2[C@H]1O shows growth of no less than 60%?
[out] no

[in] Could you verify whether the entry COc1ccc(/C=C/C(=O)c2ccc(N3CCN(C)CC3)cc2)c(C(F)(F)F)c1 shows growth of no less than 60%?
[out] no

[in] Could you verify whether the entry O=C(c1ccc(Cl)cc1)C1[C@H](c2ccccc2Br)[C@@H](c2ccccc2)NC12C(=O)Nc1ccccc12 (stereo partly drawn) shows growth of no less than 60%?
[out] no

[in] Could you verify whether the entry O=C1CCC(N2Cc3c(C#CCCCNC(=O)c4ccc(NC(=O)[C@@H]5NC6(CCCCC6)[C@@]6(C(=O)Nc7cc(Cl)ccc76)[C@H]5c5cccc(Cl)c5F)cc4)cccc3C2=O)C(=O)N1 (stereo partly drawn) shows growth of no less than 60%?
[out] no

Lab note: next molecule to report on.
[in] Could you verify whether the entry Cc1ccc(-c2cc(-c3cc4ccccc4nc3Cl)[nH]c(=S)n2)cc1 shows growth of no less than 60%?
[out] yes
